Target: PAR2 (HT-29 cells, trypsin activation) (Homo sapiens, UniProt P55085)
Construct: host or cells: HT-29 cells
Sequence (P55085 26-397): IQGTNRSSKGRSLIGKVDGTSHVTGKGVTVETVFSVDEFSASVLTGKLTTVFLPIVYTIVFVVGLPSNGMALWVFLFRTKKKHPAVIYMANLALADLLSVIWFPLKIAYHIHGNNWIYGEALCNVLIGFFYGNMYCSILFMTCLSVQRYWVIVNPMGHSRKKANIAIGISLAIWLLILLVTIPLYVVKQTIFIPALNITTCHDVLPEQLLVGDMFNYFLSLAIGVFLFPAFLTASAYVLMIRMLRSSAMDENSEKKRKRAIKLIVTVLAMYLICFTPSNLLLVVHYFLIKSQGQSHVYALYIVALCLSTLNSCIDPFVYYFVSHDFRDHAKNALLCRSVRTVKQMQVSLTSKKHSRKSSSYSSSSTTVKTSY
Assay: Ca FLIPR TETRA assay, ANTAGONIST mode, stimulation with 3.1 U/mL trypsin
Type: cell-based
Settings: HT-29 cells, stimulation with 3.1 U/mL trypsin
MEASURED PROPERTY: IC50 (nM)
Your answer is read as nM, so omit the unit and give the number.

- COMPOUND: "CC(C)c1cc(-c2ccc(F)cc2)nn2cc(C(=O)N3CCN(C(=O)C(O)c4cccnc4)[C@@H](C)C3)nc12 (stereo partly shown)"
  STUDY SYSTEM: "PAR2 (HT-29 cells, trypsin activation) (Homo sapiens, UniProt P55085)"
  IC50 [nM]: 1400

**Q:** // output IC50; input CC(C)c1cc(-c2ccc(F)cc2)nn2cc(C(=O)N3CCN(C(=O)CC(C)(C)O)[C@@H](C)C3)nc12 ; system PAR2 (HT-29 cells, trypsin activation) (Homo sapiens, UniProt P55085)
**A:** 650

**Q:** State IC50 (PAR2 (HT-29 cells, trypsin activation) (Homo sapiens, UniProt P55085)) of CC(C)C(O)C(=O)N1CCN(C(=O)c2cn3nc(-c4ccc(F)cc4)cc(C(F)(F)F)c3n2)C[C@@H]1C (stereo partly shown) .
**A:** 1500

**Q:** Enter IC50 (test system PAR2 (HT-29 cells, trypsin activation) (Homo sapiens, UniProt P55085)) for CC(C)c1cc(-c2ccc(F)cc2)nn2cc(C(=O)N3CCN(C(=O)CC4CC4)[C@@H](C)C3)nc12
**A:** 250
